The reported measurements were obtained from patent US20110158985A1.

tested target: T1, recombinant C-terminally truncated RSV (A2 strain) F protein (RSV (A2 strain), UniProt P03420 26-524)
T1 construct: extracellular domain; also called truncated F protein; extracellular domain of the F protein from RSV A2
T1 sequence (P03420 26-109, chain 1 of 2): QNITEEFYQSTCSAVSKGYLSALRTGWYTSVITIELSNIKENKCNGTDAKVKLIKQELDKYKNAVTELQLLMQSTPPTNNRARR
T1 sequence (P03420 137-524, chain 2 of 2): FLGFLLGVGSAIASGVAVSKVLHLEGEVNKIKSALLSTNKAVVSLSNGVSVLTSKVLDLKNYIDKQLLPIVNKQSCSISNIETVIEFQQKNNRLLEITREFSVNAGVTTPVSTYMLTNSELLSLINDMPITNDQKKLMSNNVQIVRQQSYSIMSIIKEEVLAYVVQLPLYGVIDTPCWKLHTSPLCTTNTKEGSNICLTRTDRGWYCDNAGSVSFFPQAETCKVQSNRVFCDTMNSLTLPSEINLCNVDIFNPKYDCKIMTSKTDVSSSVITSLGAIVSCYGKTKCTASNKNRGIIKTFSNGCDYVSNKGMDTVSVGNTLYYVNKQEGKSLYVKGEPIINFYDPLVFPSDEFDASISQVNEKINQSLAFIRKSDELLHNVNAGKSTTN
assay summary: SPR (BIAcore), Fab over immobilised F
Measured pKd, listed per entry.
// returns pKd (minus log10 of molar concentration), number only

S32A Fab (Fab, name in Kabat numbering, V domains shown) VH: QVTLRESGPALVKPTQTLTLTCTFSGFSLSTAGMSVGWIRQPPGKALEWLADIWWDDKKDYNPSLKSRLTISKDTSKNQVVLKVTNMDPADTATYYCARSMITNWYFDVWGQGTTVTVSS VL: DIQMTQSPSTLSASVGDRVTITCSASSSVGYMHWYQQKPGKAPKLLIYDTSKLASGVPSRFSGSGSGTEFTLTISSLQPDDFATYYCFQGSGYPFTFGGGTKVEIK | 9.33

Then there is this binder:
Input: What value of pKd has been reported for the following binder? G93F Fab (Fab, name in Kabat numbering, V domains shown) VH: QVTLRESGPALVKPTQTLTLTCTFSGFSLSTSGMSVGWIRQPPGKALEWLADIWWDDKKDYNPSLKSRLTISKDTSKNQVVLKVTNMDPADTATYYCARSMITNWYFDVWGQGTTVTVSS VL: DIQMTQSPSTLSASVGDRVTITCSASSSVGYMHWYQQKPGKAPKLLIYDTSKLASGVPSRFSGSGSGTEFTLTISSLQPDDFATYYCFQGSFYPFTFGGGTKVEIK
Output: 8.97
